# collection of IC50 values tested on EGFR (UniProt P00533)
# Sequence (P00533 whole entry, looked up): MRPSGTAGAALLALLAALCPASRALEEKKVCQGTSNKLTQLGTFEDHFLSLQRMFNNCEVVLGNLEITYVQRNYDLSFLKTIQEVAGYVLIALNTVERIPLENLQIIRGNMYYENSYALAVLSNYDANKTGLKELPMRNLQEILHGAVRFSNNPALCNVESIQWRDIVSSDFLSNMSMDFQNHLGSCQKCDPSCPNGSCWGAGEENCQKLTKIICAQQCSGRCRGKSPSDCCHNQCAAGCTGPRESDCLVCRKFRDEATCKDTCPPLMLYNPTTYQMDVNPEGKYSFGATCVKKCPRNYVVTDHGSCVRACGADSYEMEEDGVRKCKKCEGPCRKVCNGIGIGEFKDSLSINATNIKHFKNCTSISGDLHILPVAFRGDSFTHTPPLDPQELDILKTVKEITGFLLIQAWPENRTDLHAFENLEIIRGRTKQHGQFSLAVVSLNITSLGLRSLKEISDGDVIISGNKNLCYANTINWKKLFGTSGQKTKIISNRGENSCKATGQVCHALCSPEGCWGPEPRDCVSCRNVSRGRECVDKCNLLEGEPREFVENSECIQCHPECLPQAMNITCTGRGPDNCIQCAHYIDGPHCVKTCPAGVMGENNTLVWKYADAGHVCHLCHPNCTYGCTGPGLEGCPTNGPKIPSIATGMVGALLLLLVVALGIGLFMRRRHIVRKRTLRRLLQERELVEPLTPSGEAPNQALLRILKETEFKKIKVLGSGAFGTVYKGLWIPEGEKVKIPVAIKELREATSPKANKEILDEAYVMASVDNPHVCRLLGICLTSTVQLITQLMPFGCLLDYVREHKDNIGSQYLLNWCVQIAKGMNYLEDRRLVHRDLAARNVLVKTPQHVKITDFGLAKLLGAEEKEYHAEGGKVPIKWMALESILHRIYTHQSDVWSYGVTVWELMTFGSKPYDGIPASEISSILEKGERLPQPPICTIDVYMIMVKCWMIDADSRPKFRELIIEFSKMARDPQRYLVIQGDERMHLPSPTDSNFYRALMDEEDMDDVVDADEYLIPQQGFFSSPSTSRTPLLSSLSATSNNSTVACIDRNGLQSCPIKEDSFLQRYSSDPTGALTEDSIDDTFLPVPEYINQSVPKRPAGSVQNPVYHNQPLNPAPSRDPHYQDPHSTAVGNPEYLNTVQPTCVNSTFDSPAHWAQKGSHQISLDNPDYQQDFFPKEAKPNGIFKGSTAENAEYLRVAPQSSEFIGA

Here is how some compounds turned out for IC50.
COMPOUND: COc1cc(Nc2ncnc(Nc3ccc(N4CCCCC4)cc3)n2)cc(OC)c1OC
METRIC NAME: IC50
RESULT: 0.4 to 2.4 µg/mL
//
COMPOUND: CC(C)(C)OC(=O)NCc1ccc(Nc2ncnc(Nc3cc(-c4ccco4)n[nH]3)n2)cc1
METRIC NAME: IC50
RESULT: 0.4 to 2.4 µg/mL
//
COMPOUND: NS(=O)(=O)c1ccc(CNc2ncnc(-n3c(=O)[nH]c4ccccc43)n2)cc1
METRIC NAME: IC50
RESULT: > 4.5 µg/mL
//
COMPOUND: COc1cc(Nc2ncnc(-n3c(N)nc4ccccc43)n2)cc(OCCN2CCOCC2)c1OC
METRIC NAME: IC50
RESULT: > 4.5 µg/mL

In: Using EGFR (UniProt P00533) as the test system, report measured IC50 of CCOC(=O)Cc1cn(-c2ncnc(Nc3cc(OC)c(OC)c(OC)c3)n2)c2ccccc12 .
Out: > 4.5 µg/mL

In: Please look at COc1cc(CNc2ncnc(Nc3cc(-c4ccco4)n[nH]3)n2)cc(OC)c1OC and tell me its recorded IC50 on EGFR (UniProt P00533).
Out: > 4.5 µg/mL

In: State recorded IC50 with EGFR (UniProt P00533), entry Nc1nc2ccccc2n1-c1ncnc(Nc2cccc(CC(=O)O)c2)n1 , no comment.
Out: > 4.5 µg/mL

These data points were gathered from the Kinase Knowledgebase extract (Sharma et al. 2016).
